Origin of values: patent US20130243795A1

- tgt: T1, Human CD27 ECD truncated (ECD 1-121, cleavage site, His6) (human)
- T1 construct: also called human CD27 ECD with His Tag; CD27-His
- T1 chain: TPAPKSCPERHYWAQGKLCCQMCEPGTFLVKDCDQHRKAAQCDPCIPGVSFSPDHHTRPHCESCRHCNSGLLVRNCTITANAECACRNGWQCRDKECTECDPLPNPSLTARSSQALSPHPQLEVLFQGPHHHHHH
- assay.procedure: ELISA signal for binding to CD27, initial small culture supernatants
Can you tell me ELISA signal for the items I'm about to list?
Numbers only.

# example entries with known answers
M427 (antibody, IgG1, V domains shown, also called H227/L244; C27H227/C27L244) VH: QVQLVESGGGLVKPGGSLRLSCAASGFTFSSYGMSWIRQAPGKGLEWVSYIDEGGGQTIYPDSVKGRFTISRDNAKNSLYLQMNSLRAEDTAVYYCARHRGNPFDYWGQGTLVTVSS VL: DIQMTQSPSSLSASVGDRVTITCRASKSVSAWGYSFMHWYQQKPGKAPKLLIYVASRLESGVPSRFSGSGSGTDFTFTISSLQPEDIATYYCQHSRELPWTFGQGTKVEIK: 0.93
M501 (antibody, IgG1, V domains shown, also called H231/L250) VH: QVQLVESGGGLVKPGGSLRLSCAASGFTFSSYSMSWIRQAPGKGLEWVSHIDAGGGRTWYPDSVKGRFTISRDNAKNSLYLQMNSLRAEDTAVYYCARHRGNPFDYWGQGTLVTVSS VL: DIQMTQSPSSLSASVGDRVTITCRASKSVSLDRWSFMHWYQQKPGKAPKLLIYLASNLESGVPSRFSGSGSGTDFTFTISSLQPEDIATYYCQHSRELPWTFGQGTKVEIK: 0.77

Read the next record carefully.
Entry M429 (antibody, IgG1, V domains shown, also called H227/L245) VH: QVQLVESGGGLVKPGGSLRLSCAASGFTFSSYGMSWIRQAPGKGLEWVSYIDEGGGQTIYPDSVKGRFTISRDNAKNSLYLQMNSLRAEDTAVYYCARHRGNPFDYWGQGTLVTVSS VL: DIQMTQSPSSLSASVGDRVTITCRASKSVSHVRWSFMHWYQQKPGKAPKLLIYLASKLESGVPSRFSGSGSGTDFTFTISSLQPEDIATYYCQHSRELPWTFGQGTKVEIK has what ELISA signal? 0.86
